Where do the numbers come from? From ChEMBL document CHEMBL1201862.

Give GI50 for every item shown.
Test system: SNB-78
assay.procedure: NCI tumour cell line growth inhibition, 48 h
Active and inactive are the calls of the source. Cut-off read from the data, not from the text of the source: active = GI50 up to about 1.1 µM and inactive = higher.

Enquiry: Return reported GI50; argument: C=CCCCC(C#N)(c1ccccc1)N1CCCC1 (centres undefined)
Return: > 100 µM (inactive)

Enquiry: Return reported GI50; argument: O=C(Cc1ccccc1)NN1C(=O)C(Cl)C1c1cccc(O)c1 (centres undefined)
Return: 15.8 µM (inactive)

Enquiry: Return reported GI50; argument: N#CC(C#N)=C1NC(=O)CC(=O)N1
Return: > 100 µM (inactive)

Enquiry: Return reported GI50; argument: CS(=O)(=O)C1(Br)S(=O)(=O)OCCOS1(=O)=O
Return: > 100 µM (inactive)

Enquiry: Return reported GI50; argument: CCCCCCCCCC[C@@H](O)[C@@H]1CC[C@@H]([C@@H]2CC[C@@H]([C@@H](O)CCCCCCCCCC[C@H](O)CC3=CC(C)OC3=O)O2)O1 (some centres undefined)
Return: 3.8 µM (inactive)

Enquiry: Return reported GI50; argument: COc1ccc(C2ON(c3ccccn3)CC=C2C)cc1 (centres undefined)
Return: > 100 µM (inactive)

Enquiry: Return reported GI50; argument: Cc1ccc(NC(=O)/C(Cl)=C(/Cl)C(=O)O)cc1
Return: 30.1 µM (inactive)

Enquiry: Return reported GI50; argument: CCC(=O)C(C(=O)CC)c1c(OC(=O)c2ccccc2)ccc(O)c1C(=O)OC
Return: > 100 µM (inactive)

Enquiry: Return reported GI50; argument: N#CC(C#N)=C(N)/C(C#N)=C\c1ccnc2ccccc12
Return: 27.1 µM (inactive)

Enquiry: Return reported GI50; argument: CCC(CO)COC(=O)/C=C/C(=O)OCC(CC)CO (centres undefined)
Return: > 100 µM (inactive)

Enquiry: Return reported GI50; argument: COc1ccc(NC(=O)C2C(=O)N(c3ccc(OC)cc3)C(=O)/C2=N/O)cc1 (centres undefined)
Return: 46.8 µM (inactive)

Enquiry: Return reported GI50; argument: CC1=NN(c2ccccc2)C(=O)C1C(=O)C(=O)Nc1ccc(C)cc1C (centres undefined)
Return: > 100 µM (inactive)

Enquiry: Return reported GI50; argument: CC(=O)N1CCC2(C=Nc3ccccc32)CC1
Return: > 100 µM (inactive)

Enquiry: Return reported GI50; argument: Cc1cccc(C)c1NC(=O)CCCC(=O)C(C#N)c1ccc(Cl)cc1 (centres undefined)
Return: > 100 µM (inactive)

Enquiry: Return reported GI50; argument: CCCCCC(=O)N[C@H]1CCc2cc(O)c(O)c(O)c2-c2ccc(SC)c(=O)cc21
Return: 65.2 µM (inactive)

Enquiry: Return reported GI50; argument: CN(C)C(=S)SSC(=S)N(C)C
Return: > 75.5 µM (inactive)

Enquiry: Return reported GI50; argument: Cn1nc2ccc3nccc(NCCNCCO)c3c2n1
Return: 36.2 µM (inactive)

Enquiry: Return reported GI50; argument: O=C(Nc1cccc(Cl)c1)c1cc2cc(/N=N/c3ccc(Br)cc3)ccc2oc1=O
Return: 52.8 µM (inactive)

Enquiry: Return reported GI50; argument: Cc1cc2c(C)nn(Cc3ccc(Cl)cc3)c2c(C#N)c1C
Return: > 100 µM (inactive)

Enquiry: Return reported GI50; argument: C[C@@H](CO)OCOCc1ccccc1
Return: > 100 µM (inactive)

Enquiry: Return reported GI50; argument: CCN(CC)CC(C)(C)C(=O)/C=C/c1ccc(/C=C/C(=O)C(C)(C)CN(CC)CC)cc1
Return: 1.41 µM (inactive)

Enquiry: Return reported GI50; argument: C=CC(Br)(CBr)CCC(Br)C(C)(C)Br (centres undefined)
Return: 5.56 µM (inactive)

Enquiry: Return reported GI50; argument: CO/N=C(/C(=O)Nc1c[n+](CC(=O)[O-])cs1)c1csc(N)n1
Return: > 100 µM (inactive)

Enquiry: Return reported GI50; argument: Cc1ccc(NC(=O)C2C3CCC(O3)C2C(=O)O)cc1 (centres undefined)
Return: > 86.7 µM (inactive)
